- TARGET ENTITY: hERG channels (Homo sapiens (Human), UniProt Q12809)
- Sequence (Q12809 whole entry): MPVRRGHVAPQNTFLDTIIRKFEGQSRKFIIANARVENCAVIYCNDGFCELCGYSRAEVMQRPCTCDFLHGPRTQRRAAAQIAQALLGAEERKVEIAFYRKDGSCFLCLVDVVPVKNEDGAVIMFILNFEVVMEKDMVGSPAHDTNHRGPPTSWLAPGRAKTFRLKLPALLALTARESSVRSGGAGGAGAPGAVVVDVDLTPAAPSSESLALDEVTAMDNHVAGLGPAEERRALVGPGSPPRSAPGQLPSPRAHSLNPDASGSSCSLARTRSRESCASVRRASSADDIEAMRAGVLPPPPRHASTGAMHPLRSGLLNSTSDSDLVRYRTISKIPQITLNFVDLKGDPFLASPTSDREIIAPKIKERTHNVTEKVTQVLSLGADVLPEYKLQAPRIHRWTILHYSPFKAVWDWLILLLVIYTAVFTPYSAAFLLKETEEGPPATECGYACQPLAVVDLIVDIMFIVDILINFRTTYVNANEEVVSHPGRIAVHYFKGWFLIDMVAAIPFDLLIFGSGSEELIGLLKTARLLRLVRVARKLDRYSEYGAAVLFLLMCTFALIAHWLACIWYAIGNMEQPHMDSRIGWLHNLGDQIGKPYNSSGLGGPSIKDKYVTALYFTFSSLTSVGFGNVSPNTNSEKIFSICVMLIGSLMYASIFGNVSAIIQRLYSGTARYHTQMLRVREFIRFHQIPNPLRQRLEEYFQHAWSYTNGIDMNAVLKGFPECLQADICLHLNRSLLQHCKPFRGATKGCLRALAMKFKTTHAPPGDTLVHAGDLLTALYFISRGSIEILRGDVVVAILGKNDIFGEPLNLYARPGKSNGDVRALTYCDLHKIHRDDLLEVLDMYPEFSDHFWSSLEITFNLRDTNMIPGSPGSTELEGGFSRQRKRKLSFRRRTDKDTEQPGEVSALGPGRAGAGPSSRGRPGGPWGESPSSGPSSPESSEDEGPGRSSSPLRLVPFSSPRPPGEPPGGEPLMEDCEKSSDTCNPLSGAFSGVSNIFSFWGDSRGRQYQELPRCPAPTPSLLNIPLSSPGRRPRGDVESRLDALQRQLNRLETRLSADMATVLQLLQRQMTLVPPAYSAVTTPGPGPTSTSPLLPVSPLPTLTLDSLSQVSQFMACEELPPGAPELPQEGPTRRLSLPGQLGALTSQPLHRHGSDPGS
- ASSAY: cell-based
MEASURED QUANTITY: IC50

For orientation, consider the following solved cases.
[[record]]
compound = "O=C(O)CNC(=O)c1nc(Cl)c2nc(Oc3ccccc3Cl)ccc2c1O [Link-124]"
meas_value = "> 30 µM"

[[record]]
compound = "O=C(O)CNC(=O)c1nc(Br)c2nc(Oc3cccc(Cl)c3)ccc2c1O [Link-127]"
meas_value = "> 30 µM"

[[record]]
compound = "O=C(O)CNC(=O)c1nc(Br)c2nc(Oc3ccccc3Cl)ccc2c1O [Link-125]"
meas_value = "> 30 µM"

[[record]]
compound = "O=C(O)CNC(=O)c1nc(Cl)c2nc(Oc3ccc(Cl)cc3)ccc2c1O [Link-128]"
meas_value = "> 30 µM"

[[record]]
compound = "O=C(O)CNC(=O)c1nc(Br)c2nc(Oc3ccc(Cl)cc3)ccc2c1O [Link-129]"
meas_value = "> 30 µM"


[Q] What measured IC50 goes with O=C(O)CNC(=O)c1nc(Br)c2nc(Oc3ccccc3)ccc2c1O [Link-121] ?
[A] > 30 µM

[Q] Now consider O=C(O)CNC(=O)c1nc(Cl)c2nc(Oc3cccc(Cl)c3)ccc2c1O [Link-126] .
[A] > 30 µM

[Q] And O=C(O)CNC(=O)c1nc(Cl)c2nc(Oc3ccccc3)ccc2c1O [Link-118] ?
[A] > 30 µM

====

Reported pIC50 values are given for each entry in this list.
- TARGET ENTITY: CYP2C9 (Homo sapiens (Human))
- Sequence (P11712 whole entry): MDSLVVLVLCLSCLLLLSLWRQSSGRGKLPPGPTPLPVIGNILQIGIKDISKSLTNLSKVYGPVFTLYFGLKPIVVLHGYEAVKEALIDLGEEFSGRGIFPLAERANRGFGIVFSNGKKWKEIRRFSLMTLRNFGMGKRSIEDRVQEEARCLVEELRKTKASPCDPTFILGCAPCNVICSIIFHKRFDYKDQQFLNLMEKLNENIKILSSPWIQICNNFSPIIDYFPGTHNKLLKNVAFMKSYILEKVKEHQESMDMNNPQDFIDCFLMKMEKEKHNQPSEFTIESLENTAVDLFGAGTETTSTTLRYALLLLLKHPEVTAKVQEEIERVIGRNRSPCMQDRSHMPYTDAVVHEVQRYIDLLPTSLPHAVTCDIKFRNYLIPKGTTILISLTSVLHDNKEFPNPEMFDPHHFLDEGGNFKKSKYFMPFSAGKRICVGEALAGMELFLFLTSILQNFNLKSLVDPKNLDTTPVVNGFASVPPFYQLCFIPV
- ASSAY: CYP enzyme inhibition assay
- Format: in vitro ADME
pIC50: −log10 of the molar value.

Here are 2 compounds together with their reported answers.
[[record]]
smiles_str = "O=C(O)CNC(=O)c1nc(Br)c2nc(Oc3ccccc3Cl)ccc2c1O"
measured_quantity = "pIC50"
meas_value = "< 4.30"

[[record]]
smiles_str = "O=C(O)CNC(=O)c1nc(Cl)c2nc(Oc3ccccc3Cl)ccc2c1O"
measured_quantity = "pIC50"
meas_value = "< 4.30"


[Q] Look up pIC50 for this compound: O=C(O)CNC(=O)c1nc(Cl)c2nc(Oc3ccccc3)ccc2c1O
[A] < 4.30

[Q] Ok, now O=C(O)CNC(=O)c1nc(Br)c2nc(Oc3cccc(Cl)c3)ccc2c1O
[A] < 4.30

[Q] Next up: O=C(O)CNC(=O)c1nc(Br)c2nc(Oc3ccc(Cl)cc3)ccc2c1O
[A] < 4.30

[Q] Next compound: O=C(O)CNC(=O)c1nc(Cl)c2nc(Oc3cccc(Cl)c3)ccc2c1O
[A] < 4.30

[Q] Similarly, O=C(O)CNC(=O)c1nc(Br)c2nc(Oc3ccccc3)ccc2c1O ?
[A] < 4.30

[Q] Repeat with O=C(O)CNC(=O)c1nc(Cl)c2nc(Oc3ccc(Cl)cc3)ccc2c1O
[A] < 4.30

====

Measured pIC50, listed per entry.
- TARGET ENTITY: CYP2D6 (Homo sapiens (Human), UniProt P10635)
- Sequence (P10635 whole entry): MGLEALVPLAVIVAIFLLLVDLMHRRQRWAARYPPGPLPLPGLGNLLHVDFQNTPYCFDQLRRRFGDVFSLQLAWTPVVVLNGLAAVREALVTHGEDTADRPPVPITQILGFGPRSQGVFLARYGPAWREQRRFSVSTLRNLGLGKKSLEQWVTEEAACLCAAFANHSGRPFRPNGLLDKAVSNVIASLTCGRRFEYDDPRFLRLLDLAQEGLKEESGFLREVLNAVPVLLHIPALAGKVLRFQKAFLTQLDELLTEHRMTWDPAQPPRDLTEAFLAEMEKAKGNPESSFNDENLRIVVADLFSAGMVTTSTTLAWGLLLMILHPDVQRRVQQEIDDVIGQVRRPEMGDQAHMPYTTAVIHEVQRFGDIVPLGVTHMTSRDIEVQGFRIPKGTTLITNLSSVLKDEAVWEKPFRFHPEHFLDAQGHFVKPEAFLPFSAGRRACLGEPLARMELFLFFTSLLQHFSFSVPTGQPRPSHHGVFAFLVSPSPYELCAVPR
- ASSAY: CYP enzyme inhibition assay
- Format: in vitro ADME
pIC50: −log10 of the molar value.

Below, 2 compounds whose answers are already recorded.
[[record]]
smiles_str = "O=C(O)CNC(=O)c1nc(Cl)c2nc(Oc3ccccc3)ccc2c1O"
meas_value = "< 4.30"

[[record]]
smiles_str = "O=C(O)CNC(=O)c1nc(Br)c2nc(Oc3ccccc3)ccc2c1O"
meas_value = "< 4.30"


Next compound, pIC50 to be filled in.
[Q] What does the data say about its pIC50? Entry: O=C(O)CNC(=O)c1nc(Br)c2nc(Oc3ccccc3Cl)ccc2c1O
[A] < 4.30
